# Target: T1, Recombinant human TSLP-his (human, UniProt Q969D9 29-159)
# T1 construct: Prepared in-house; Amine-coupled to CM5 chip in SPR, loaded on APS sensors in Octet, biotin-labeled in the capture ELISA, unlabeled in the cell functional assays; also called human TSLP-his protein
# Protocol details: SPR, Biacore T200; protocol of Example 2
Can you tell me Kd for the items I'm about to list?

Each of the following entries comes with a recorded value; kindly state Kd for each.
1. hu1C5F12E9-V13 (antibody, human IgG4 S228P, kappa, V domains shown) VH: QVQLVQSGAEVKKPGASVKVSCKASGYTFTTYWMHWVRQAPGQGLEWIGVIDPSDSDTTYNQKFKGRATLTVDTSSSTAYMELSSLRSEDTAVYYCTRSLDGYYDYWGQGTLVTVSS VL: DIQMTQSPSSLSASVGDRVTITCRPTENIYSYLAWYQQKPGKSPKLLIYFARTLAEGVPSRFSGSGSGTDFTLTISSLQPEDFATYYCQHHYGTPWTFGGGTKVEIKR
2. hu1C5F12E9-V18 (antibody, human IgG4 S228P, kappa, V domains shown) VH: QVQLVQSGAEVKKPGASVKVSCKASGYTFTTYWMHWVRQAPGQGLEWMGVIDPSDSDTTYNQKFKGKATMTVDTSTSTVYMELSSLRSEDTAVYYCTRSLDGYYDYWGQGTLVTVSS VL: DIQMTQSPSSLSASVGDRVTITCRPTENIYSYLAWYQQKPGKSPKLLIYFARTLAEGVPSRFSGSGSGTDFTLTISSLQPEDFATYYCQHHYGTPWTFGGGTKVEIKR

1. < 96.2 pM
2. < 82.6 pM

Complete the entry with Kd for hu1C5F12E9-V12 (antibody, human IgG4 S228P, kappa, V domains shown) VH: QVQLVQSGAEVKKPGASVKVSCKASGYTFTTYWMHWVRQAPGQGLEWMGVIDPSDSDTTYNQKFKGKATMTVDTSTSTVYMELSSLRSEDTAVYYCTRSLDGYYDYWGQGTLVTVSS VL: DIQMTQSPSSLSASVGDRVTITCRPTENIYSYLAWYQQKPGKAPKLLIYFARTLAEGVPSRFSGSGSGTDFTLTISSLQPEDFATYYCQHHYGTPWTFGGGTKVEIKR
< 104 pM

The measured values listed here are drawn from patent US20220289833A1.
